Taken from ChEMBL document CHEMBL5724914.

test.conditions: human gut metagenome, 24 h, 2 µM; also: call rule not given here
quantity: Bacterial Biotransformation

CN(C)CC(c1ccc(O)cc1)C1(O)CCCCC1.O=C(O)CCC(=O)O (centres undefined) [DESVENLAFAXINE SUCCINATE]
Compound NOT metabolized
Cc1ccnc2c1NC(=O)c1cccnc1N2C1CC1
Compound NOT metabolized
Cc1ccc(/C(=C\CN2CCCC2)c2ccccn2)cc1
Compound NOT metabolized

* * *

test.conditions: human gut metagenome, 24 h, 2 µM
quantity: Bacterial Biotransformation

// below: answered compounds
CCc1nn(CCCN2CCN(c3cccc(Cl)c3)CC2)c(=O)n1CCOc1ccccc1
Compound metabolized
O=C(O)COCCN1CCN(C(c2ccccc2)c2ccc(Cl)cc2)CC1 (centres undefined)
Compound metabolized
OC(CCN1CCCCC1)(c1ccccc1)C1CC2C=CC1C2 (centres undefined)
Compound NOT metabolized
O=C1NCC2(CCN(CCc3ccccc3)CC2)O1 [FENSPIRIDE]
Compound NOT metabolized
CCCC1O[C@@H]2C[C@H]3[C@@H]4CCC5=CC(=O)C=C[C@]5(C)[C@H]4[C@@H](O)C[C@]3(C)[C@]2(C(=O)CO)O1 (some centres undefined) [BUDESONIDE]
Compound metabolized

Q) Read the entry CC(CN1c2ccccc2Sc2ccccc21)N(C)C (centres undefined) and write its reported Bacterial Biotransformation.
A) Compound metabolized

Q) Respond only with Bacterial Biotransformation recorded for CCN(CC)CC#CCOC(=O)C(O)(c1ccccc1)C1CCCCC1.Cl (centres undefined) [OXYBUTYNIN CHLORIDE]
A) Compound metabolized

Q) Query Bacterial Biotransformation for "CC(=O)OCC(=O)[C@@]12N=C(C)O[C@@H]1C[C@H]1[C@@H]3CCC4=CC(=O)C=C[C@]4(C)[C@H]3[C@@H](O)C[C@@]12C"
A) Compound metabolized

Q) Fill in reported Bacterial Biotransformation for this entry: "CCOC(=O)[C@H](CCc1ccccc1)N[C@H]1CCc2ccccc2N(CC(=O)O)C1=O"
A) Compound metabolized
